Values compiled from patent US6780996B2.

Recorded Endpoint: melting point

* CCN1CCN(CCCOc2cc3ncc(C#N)c(Nc4ccc(Sc5nccn5C)c(Cl)c4)c3cc2OCCOC)CC1 [Example 21] | 188 to 190 °C
* COCCOc1cc2ncc(C#N)c(Nc3cc(OC)c(Cl)cc3Cl)c2cc1OC [Example 14] | 210 to 212 °C
* COCCOc1cc2c(Nc3ccc(Sc4nccn4C)c(Cl)c3)c(C#N)cnc2cc1OCCCN(C)C [Example 20] | 194 to 203 °C
* COc1cc(Nc2c(C#N)cnc3cc(OCC(C)(C)CN(C)C)c(OC)cc23)c(Cl)cc1Cl [Example 2] | 178 to 180 °C

Pending molecule:
The molecule COc1cc(Nc2c(C#N)cnc3cc(Oc4ccncc4)c(OC)cc23)c(Cl)cc1Cl [Example 12] showed melting point equal to 267 to 269 °C
